Biological target: T1, recombinant Plasmodium falciparum circumsporozoite protein (CSP) (Plasmodium falciparum, UniProt Q7K740 21-375)
T1 construct: also called recombinant CSP
T1 sequence (Q7K740 21-375 limits assumed): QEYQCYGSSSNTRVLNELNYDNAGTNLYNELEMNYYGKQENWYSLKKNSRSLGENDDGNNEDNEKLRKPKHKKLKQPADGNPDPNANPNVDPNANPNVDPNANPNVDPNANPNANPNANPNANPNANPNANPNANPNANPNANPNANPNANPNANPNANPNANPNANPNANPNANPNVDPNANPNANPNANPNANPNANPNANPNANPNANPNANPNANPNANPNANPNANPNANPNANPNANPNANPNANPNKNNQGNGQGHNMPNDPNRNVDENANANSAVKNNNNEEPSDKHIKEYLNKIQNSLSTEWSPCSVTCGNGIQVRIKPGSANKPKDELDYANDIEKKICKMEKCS
Assay: SPR, recombinant CSP
test-readout: koff (s⁻¹)

>>> value("AB-000391 (antibody, V domains shown) VH: EVQLVQSGGGLVQPGGSLRLSCVASGFTLSSYEMNWVRQAPGKGLEWVSFISSSGSKKRYADSVKGRFTVSRDNAKNSLSLQMNSLRAEDTAVYYCARDHSTSDREYGLDVWGQGATVTVSS VL: DVVMTQSPLSLPVTLGQPASISCRSGQSLLYSDGNTYLYWFQQRPGQSPRRLIYKVSNRDPGVPERFSGSGSGTDFTLKISRVEAEDVGIYFCLQGTHWPYTFGRGTKLEIK")
0.000535
>>> value("AB001480 (antibody, V domains shown) VH: QVQLVESGGGVVQPGRSLRLSCAASGFTFSFYGMHWVRQAPGKGLEWVAVIWYDGSNKYYADSVRGRFTISRDNSKNTLYLQMNSLRAEDTAVYYCARVGNDYDDHGSALDMWGQGTMVTVSS VL: DIQMTQSPSTLSASVGDRVTITCRASQSISSWLAWYQQKPGKAPKLLIYRASSLESGVPPRFSGSGSGTEFTLTISSLQPDDFGIYYCQQYNSRWTFGQGTKVEIK")
0.000659
